- assay-target: horseradish peroxidase (HRP) tagged delF508-CFTR (Homo sapiens, UniProt P13569, DEL508-508)
- Construct: expressed in transfected cells
- Sequence (P13569 with tags, fused parts or gaps DEL508-508): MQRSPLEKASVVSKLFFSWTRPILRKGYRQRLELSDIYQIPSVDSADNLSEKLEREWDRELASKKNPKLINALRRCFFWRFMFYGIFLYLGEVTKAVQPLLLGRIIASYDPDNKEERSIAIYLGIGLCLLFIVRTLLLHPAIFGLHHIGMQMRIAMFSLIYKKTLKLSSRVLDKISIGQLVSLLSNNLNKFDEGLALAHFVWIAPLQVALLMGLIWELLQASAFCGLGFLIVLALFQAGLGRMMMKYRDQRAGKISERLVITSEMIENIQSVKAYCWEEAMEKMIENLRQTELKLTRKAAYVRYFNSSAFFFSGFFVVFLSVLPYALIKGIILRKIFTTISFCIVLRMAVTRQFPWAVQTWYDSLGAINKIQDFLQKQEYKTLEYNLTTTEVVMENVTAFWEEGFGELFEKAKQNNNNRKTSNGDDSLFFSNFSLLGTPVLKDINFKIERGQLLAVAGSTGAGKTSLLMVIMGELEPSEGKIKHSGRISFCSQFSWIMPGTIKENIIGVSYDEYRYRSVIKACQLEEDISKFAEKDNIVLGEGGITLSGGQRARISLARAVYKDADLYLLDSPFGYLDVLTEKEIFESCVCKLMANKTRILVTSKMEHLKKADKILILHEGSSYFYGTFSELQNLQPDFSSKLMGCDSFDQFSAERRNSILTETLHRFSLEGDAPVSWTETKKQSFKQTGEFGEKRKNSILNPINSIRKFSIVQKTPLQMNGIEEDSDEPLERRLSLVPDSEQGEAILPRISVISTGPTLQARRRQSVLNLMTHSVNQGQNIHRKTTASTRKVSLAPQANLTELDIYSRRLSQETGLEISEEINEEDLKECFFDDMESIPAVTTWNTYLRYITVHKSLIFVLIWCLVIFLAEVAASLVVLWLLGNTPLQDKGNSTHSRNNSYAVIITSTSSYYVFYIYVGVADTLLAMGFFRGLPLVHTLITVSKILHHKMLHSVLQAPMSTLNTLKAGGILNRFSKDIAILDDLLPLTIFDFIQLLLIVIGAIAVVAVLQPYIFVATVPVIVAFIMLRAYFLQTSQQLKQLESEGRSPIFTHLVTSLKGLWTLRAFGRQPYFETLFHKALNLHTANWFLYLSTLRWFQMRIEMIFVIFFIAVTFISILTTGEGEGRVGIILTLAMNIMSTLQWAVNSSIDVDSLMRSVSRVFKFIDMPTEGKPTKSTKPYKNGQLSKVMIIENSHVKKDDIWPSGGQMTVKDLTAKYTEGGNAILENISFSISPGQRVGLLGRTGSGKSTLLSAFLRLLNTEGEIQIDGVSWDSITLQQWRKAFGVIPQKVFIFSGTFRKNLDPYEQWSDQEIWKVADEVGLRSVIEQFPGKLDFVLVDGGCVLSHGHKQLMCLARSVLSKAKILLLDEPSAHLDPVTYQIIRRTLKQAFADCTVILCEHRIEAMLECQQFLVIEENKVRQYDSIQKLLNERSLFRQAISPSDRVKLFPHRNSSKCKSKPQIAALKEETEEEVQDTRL
- protocol: Measurement of delF508-CFTR-HRP surface expression in CFBE41o- cells;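 note: percent efficacy relative to reference corrector lumacaftor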
- Type: cell-based
- experimental-parameters: delF508-CFTR-HRP surface expression, CFBE41o- cells; read-out: DelF508-CFTR-HRP Amax %
Where a name gives a salt, the structure may show the parent alone.
Reported Emax values for a set of compounds

>  <compound>
Cc1ccc(C#N)cc1-c1nc(NS(=O)(=O)c2ccnc(N)c2)ccc1C(F)(F)F

>  <Emax>
223%

$$$$
>  <compound>
Cc1ccccc1-c1nc(NS(=O)(=O)c2cccc(N3CC4C(N)C4C3)n2)ccc1C(F)(F)F (stereo not shown) [Example 107, Hydrochloride]

>  <Emax>
756%

$$$$
>  <compound>
O=S(=O)(Nc1ccc(C(F)(F)F)c(-c2ccccc2Cl)n1)c1cccc(N2CCNCC2)n1 [Example 150, hydrochloride]

>  <Emax>
180%

$$$$
>  <compound>
Cc1ccccc1-c1nc(NS(=O)(=O)c2cccc(N[C@H]3C[C@H](C(=O)O)C3)n2)ccc1C(F)(F)F

>  <Emax>
140%

$$$$

The measurements presented in this section are drawn from patent US11066369B2.
